# Test system: Escherichia coli
# assay_protocol: Antimicrobial activity against Escherichia coli at 20 ug/ml after 24 hr by disk diffusion method
# Assay type: functional
# measurement_conditions: read-out: IZ
Reported zone of inhibition at 20 µg/mL is given for each of the following compounds.
Response body: numeric value in mm, unit text excluded.

> print(dat)
                                   compound     tested.system  value.reported
1  CCOc1cccc(N2C(c3ccccc3)C23C(c2ccccc2)=Nc2ccccc23)c1 (configuration not stated)  Escherichia coli            24.3
2  Oc1ccc(N2C(c3ccccc3)C23C(c2ccccc2)=Nc2ccccc23)cc1 (configuration not stated)  Escherichia coli               6
3  Clc1ccccc1N1C(c2ccccc2)C12C(c1ccccc1)=Nc1ccccc12 (configuration not stated)  Escherichia coli              17
4  O=[N+]([O-])c1ccccc1N1C(c2ccccc2)C12C(c1ccccc1)=Nc1ccccc12 (configuration not stated)  Escherichia coli            18.3
5  Oc1ccccc1N1C(c2ccccc2)C12C(c1ccccc1)=Nc1ccccc12 (configuration not stated)  Escherichia coli            11.3

Please look at the following compound next.
### Prompt Consider the compound Clc1ccc(N2C(c3ccccc3)C23C(c2ccccc2)=Nc2ccccc23)cc1 (configuration not stated) and give its measured zone of inhibition at 20 µg/mL.
### Response 7.7

* * *

# Test system: Bacillus subtilis
# assay_protocol: Antimicrobial activity against Bacillus subtilis at 20 ug/ml after 24 hr by disk diffusion method relative to ampicillin
# Assay type: functional
Entries whose Ratio is below 200 take MET; entries at or above 200 take NOT MET.

Please review the entries below; each comes with its answer.
> print(dat)
                                   compound      tested.system  label.value
1  COc1cccc(N2C(c3ccccc3)C23C(c2ccccc2)=Nc2ccccc23)c1 (stereo unspecified)  Bacillus subtilis      NOT MET
2  Oc1cccc(N2C(c3ccccc3)C23C(c2ccccc2)=Nc2ccccc23)c1 (stereo unspecified)  Bacillus subtilis          MET
3  CCOc1cccc(N2C(c3ccccc3)C23C(c2ccccc2)=Nc2ccccc23)c1 (stereo unspecified)  Bacillus subtilis      NOT MET
4  CCOc1ccccc1N1C(c2ccccc2)C12C(c1ccccc1)=Nc1ccccc12 (stereo unspecified)  Bacillus subtilis      NOT MET
5  Oc1ccc(N2C(c3ccccc3)C23C(c2ccccc2)=Nc2ccccc23)cc1 (stereo unspecified)  Bacillus subtilis          MET
6  Cc1cccc(N2C(c3ccccc3)C23C(c2ccccc2)=Nc2ccccc23)c1 (stereo unspecified)  Bacillus subtilis          MET
7  c1ccc(C2=Nc3ccccc3C23C(c2ccccc2)N3c2ccccc2)cc1 (stereo unspecified)  Bacillus subtilis          MET
8  Clc1ccccc1N1C(c2ccccc2)C12C(c1ccccc1)=Nc1ccccc12 (stereo unspecified)  Bacillus subtilis          MET

### Prompt # check: Ratio < 200 for Oc1ccccc1N1C(c2ccccc2)C12C(c1ccccc1)=Nc1ccccc12 (stereo unspecified)
### Response MET

### Prompt Here's an entry: O=[N+]([O-])c1cccc(N2C(c3ccccc3)C23C(c2ccccc2)=Nc2ccccc23)c1 (stereo unspecified) . Is its Ratio below 200?
### Response MET

### Prompt Check if Ratio falls below 200 for Clc1ccc(N2C(c3ccccc3)C23C(c2ccccc2)=Nc2ccccc23)cc1 (stereo unspecified) .
### Response MET

### Prompt For O=[N+]([O-])c1ccccc1N1C(c2ccccc2)C12C(c1ccccc1)=Nc1ccccc12 (stereo unspecified) , is the recorded Ratio below the cut-off of 200?
### Response NOT MET

### Prompt Lab note: Ratio threshold 200. Does this compound come in strictly under it? O=C(O)c1ccccc1N1C(c2ccccc2)C12C(c1ccccc1)=Nc1ccccc12 (stereo unspecified)
### Response MET

### Prompt Does Clc1cccc(N2C(c3ccccc3)C23C(c2ccccc2)=Nc2ccccc23)c1 (stereo unspecified) have Ratio strictly under 200?
### Response MET

### Prompt I wonder whether O=[N+]([O-])c1ccc(N2C(c3ccccc3)C23C(c2ccccc2)=Nc2ccccc23)cc1 (stereo unspecified) has Ratio below 200. Can you tell?
### Response MET

### Prompt Determine if COc1ccccc1N1C(c2ccccc2)C12C(c1ccccc1)=Nc1ccccc12 (stereo unspecified) shows Ratio strictly lower than 200.
### Response NOT MET
